molecular target: T1, His-tagged P3028 peptide (PGE73) (human); assay: PEPSCAN ELISA, peptide on card
T1 construct: albumin-derived peptide, in solution at 0.5 ug/mL; not shown: His-tag
T1 peptide: VFDEFKPLVEEPQNLIK
# RAMPO Score values compiled below
REPORTED ENDPOINT: RAMPO Score

KKLDTFFVKLSLFNER [SEQ ID NO: 382 KKLDTFFVKLSLFNER]: 599
KKLDTFFVKLSLWTER [SEQ ID NO: 375 KKLDTFFVKLSLWTER]: 430
KKIDTFFVKLSLFTER [SEQ ID NO: 289 KKIDTFFVKLSLFTER]: 454
NKLDTFFVKLSLFTER [SEQ ID NO: 276 NKLDTFFVKLSLFTER]: 445
KKMDTFFVKLSLFTER [SEQ ID NO: 291 KKMDTFFVKLSLFTER]: 460
MKLDTFFVKLSLFTER [SEQ ID NO: 275 MKLDTFFVKLSLFTER]: 457
GKLDTFFVKLSLFTER [SEQ ID NO: 271 GKLDTFFVKLSLFTER]: 367
KKHDTFFVKLSLFTER [SEQ ID NO: 288 KKHDTFFVKLSLFTER]: 477
KKLITFFVKLSLFTER [SEQ ID NO: 300 KKLITFFVKLSLFTER]: 430
KKLDTFFVKLSLFTEN [SEQ ID NO: 390 KKLDTFFVKLSLFTEN]: 311
KKLDTFFVKLSLFIER [SEQ ID NO: 379 KKLDTFFVKLSLFIER]: 375
KKLDTFFVKLSLFTEY [SEQ ID NO: 393 KKLDTFFVKLSLFTEY]: 311
